- Test system: human APOE RNA
- assay_method_text: Dose-dependent inhibition of human APOE RNA in HepG2 cells, electroporation, 50,000 cells per well, RT-PCR normalized to GAPDH (Example 4, Tables 8-10)
- Type: cell-based
- condition_info: 3,200 nM; HepG2, electroporation, 16-hour treatment
Strand notation (5' to 3'): a small letter for the sugar, then the base; units joined by * are phosphorothioate-linked, units joined directly phosphodiester-linked; [ ] holds rarer units or linkages, { } end groups; capitals alone tell only the bases. [ms] = mesyl phosphoramidate linkage; e = 2'-O-(2-methoxyethyl) (MOE); k = constrained ethyl (cEt); [5mC] = 5-methylcytosine; d = 2'-deoxy (DNA)
APOE RNA (% UTC) overview

# substance, readout_units, APOE RNA (% UTC)
records = [
    ("1757572 (eA*e[5mC]eTeT*kG*kG*dT*dG[ms]dA[ms]dA[ms]dT*d[5mC]*dT*dT*dT*dA[ms]eT*eT*eA*eA; antisense) [Compound 1757572]", "% UTC", 51),
    ("1757541: mixed MOE/cEt gapmer TTGGTGAATCTTTATTAA, sugar eeeekddddddddeeeee, linkages soossssssssssooss (eT*eTeGeG*kT*dG*dA*dA*dT*d[5mC]*dT*dT*dT*eAeTeT*eA*eA) [compound 1757541]", "% UTC", 38),
    ("1757574 (eA*e[5mC]eTeT*eG*eG*dT*dG[ms]dA[ms]dA[ms]dT*d[5mC]*dT*dT*dT*dA[ms]kT*kT*eA*eA; antisense) [Compound 1757574]", "% UTC", 28),
]

----------
- Tested on: human APOE RNA
- assay_method_text: Dose-dependent inhibition of human APOE RNA in HepG2 cells, electroporation, 24 hours (Example 6)
- Type: cell-based
- condition_info: 20,000 nM
Strand notation (5' to 3'): a small letter for the sugar, then the base; units joined by * are phosphorothioate-linked, units joined directly phosphodiester-linked; [ ] holds rarer units or linkages, { } end groups; capitals alone tell only the bases. [ms] = mesyl phosphoramidate linkage; e = 2'-O-(2-methoxyethyl) (MOE); k = constrained ethyl (cEt); [5mC] = 5-methylcytosine; d = 2'-deoxy (DNA)
parameter_measured: APOE RNA (% UTC)

# substance, tgt, parameter_measured, readout_units, test_value
data = [
    ("1736525: 6-10-4 MOE gapmer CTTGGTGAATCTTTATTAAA, linkages sooosszzsssssssssss (e[5mC]*eTeTeGeG*eT*dG[ms]dA[ms]dA*dT*d[5mC]*dT*dT*dT*dA*dT*eT*eA*eA*eA) [compound 1736525]", "human APOE RNA", "APOE RNA (% UTC)", "% UTC", 7),
    ("1693101: 6-10-4 MOE gapmer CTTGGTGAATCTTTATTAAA, linkages sssssozzzssssszssss (e[5mC]*eT*eT*eG*eG*eTdG[ms]dA[ms]dA[ms]dT*d[5mC]*dT*dT*dT*dA[ms]dT*eT*eA*eA*eA) [compound 1693101]", "human APOE RNA", "APOE RNA (% UTC)", "% UTC", 20),
    ("1736534 (e[5mC]*eT*eT*eG*eGeT*dG[ms]dA[ms]dA[ms]dT*d[5mC]*dT*dT*dT*dA[ms]dT*kT*kA*eA*eA; antisense) [Compound 1736534]", "human APOE RNA", "APOE RNA (% UTC)", "% UTC", 25),
]

----------
- Test system: human APOE RNA
- assay_method_text: Activity in APOE C57BL/6NTac-Apoeem7250 knock-in mice, single ICV bolus, 4 weeks (Example 10)
- Format: in vivo
- condition_info: cortex; single ICV bolus 300 μg; 4 weeks post treatment; normalized to mouse Ppia
Strand notation (5' to 3'): a small letter for the sugar, then the base; units joined by * are phosphorothioate-linked, units joined directly phosphodiester-linked; [ ] holds rarer units or linkages, { } end groups; capitals alone tell only the bases. [ms] = mesyl phosphoramidate linkage; e = 2'-O-(2-methoxyethyl) (MOE); k = constrained ethyl (cEt); [5mC] = 5-methylcytosine; d = 2'-deoxy (DNA)

# substance, tgt, APOE RNA (% control) Cortex
data = [
    ("1746809 (k[5mC]*dT[ms]kT*dG[ms]kG*dT[ms]dG[ms]dA[ms]dA[ms]dT*d[5mC]*dT*dT*dT*dA[ms]dT*dT[ms]kA*kA*kA; antisense) [Compound 1746809]", "human APOE RNA", 36),
    ("1778131: modified oligonucleotide complementary to human APOE RNA (eA*e[5mC]eTeTeGkG*dT*dG[ms]dA[ms]dA*dT*d[5mC]*dT*dT*dT*dA[ms]kTkT*eA*eA; antisense) [compound 1778131]", "human APOE RNA", 29),
    ("1778113 (eA*e[5mC]eTeTkG*kG*dT*dG[ms]dA[ms]dA*dT*d[5mC]*dT*dT*dT*dA[ms]eT*eT*eA*eA; antisense) [Compound 1778113]", "human APOE RNA", 48),
    ("1746792 (k[5mC]*dT[ms]dT[ms]kG*dG[ms]kT*dG[ms]dA[ms]dA[ms]dT*d[5mC]*dT*dT*dT*dA[ms]dT*kT*kA*dA[ms]kA; antisense) [Compound 1746792]", "human APOE RNA", 71),
    ("1778111: modified oligonucleotide complementary to human APOE RNA (eA*e[5mC]eTeTeG*kG*dT*dG[ms]dA[ms]dA*dT*d[5mC]*dT*dT*dT*dA[ms]eTeT*eA*eA; antisense) [compound 1778111]", "human APOE RNA", 34),
]

----------
- Test system: human APOE RNA
- assay_method_text: Dose-dependent inhibition of human APOE RNA in HepG2 cells, electroporation, 50,000 cells per well, RT-PCR normalized to GAPDH (Example 4, Tables 8-10)
- Type: cell-based
- condition_info: 205 nM; HepG2, electroporation, 16-hour treatment
- Method: Modified oligonucleotides selected from the examples above were tested at various doses in HepG2 cells. The modified oligonucleotides were tested in a series of experiments that had the same culture conditions. Each experiment is identified in separate tables below. HepG2 cells plated at a density of 50,000 cells per well were treated by electroporation with various concentrations of modified oligonucleotide as specified in the tables below. […]
Strand notation (5' to 3'): a small letter for the sugar, then the base; units joined by * are phosphorothioate-linked, units joined directly phosphodiester-linked; [ ] holds rarer units or linkages, { } end groups; capitals alone tell only the bases. [ms] = mesyl phosphoramidate linkage; e = 2'-O-(2-methoxyethyl) (MOE); k = constrained ethyl (cEt); [5mC] = 5-methylcytosine; d = 2'-deoxy (DNA)

# substance, readout_units, APOE RNA (% UTC)
records = [
    ("1757586 (eT*eTeGeGkT*dG*dA*dA*dT*d[5mC]*dT*dT*dT*dA*dT*kTkAeA*eA*e[5mC]; antisense) [Compound 1757586]", "% UTC", 129),
    ("1757568 (eA*e[5mC]eTeTeG*dG*dT*dG*dA*dA*dT*d[5mC]*dT*dT*dT*kAkTeT*eA*eA; antisense) [Compound 1757568]", "% UTC", 93),
    ("1766537 (eT*eTeGeGeT*dG[ms]dA[ms]dA[ms]dT*d[5mC]*dT*dT*dT[ms]dA*dT*kTkAeA*eA*e[5mC]; antisense) [Compound 1766537]", "% UTC", 90),
    ("1757544: mixed MOE/cEt gapmer TTGGTGAATCTTTATTAA, sugar ekeeeddddddddeeeee, linkages soossssssssssooss (eT*kTeGeG*eT*dG*dA*dA*dT*d[5mC]*dT*dT*dT*eAeTeT*eA*eA) [compound 1757544]", "% UTC", 90),
    ("1757563: mixed MOE/cEt gapmer TTGGTGAATCTTTATTAA, sugar eeeekddddddddkekee, linkages soossssssssssooss (eT*eTeGeG*kT*dG*dA*dA*dT*d[5mC]*dT*dT*dT*kAeTkT*eA*eA) [compound 1757563]", "% UTC", 76),
]

----------
- System: human APOE RNA
- assay_method_text: Dose-dependent inhibition of human APOE RNA in HepG2 cells, electroporation, 50,000 cells per well, RT-PCR normalized to GAPDH (Example 4, Tables 8-10)
- Assay type: cell-based
- condition_info: reduction of human APOE RNA, HepG2 cells, electroporation, 24-hour treatment, Table 8
Strand notation (5' to 3'): a small letter for the sugar, then the base; units joined by * are phosphorothioate-linked, units joined directly phosphodiester-linked; [ ] holds rarer units or linkages, { } end groups; capitals alone tell only the bases. [ms] = mesyl phosphoramidate linkage; e = 2'-O-(2-methoxyethyl) (MOE); k = constrained ethyl (cEt); [5mC] = 5-methylcytosine; d = 2'-deoxy (DNA)
In this section we review reported IC50 values for a set of substances.
parameter_measured: IC50 (nM)

# substance, parameter_measured, readout_units, test_value
measured = [
    ("1778129: modified oligonucleotide complementary to human APOE RNA (eA*e[5mC]eTeTeG*kG*dT*dG[ms]dA[ms]dA*dT*d[5mC]*dT*dT*dT*dA[ms]kT*kT*eA*eA; antisense) [compound 1778129]", "IC50", "nM", 410),
    ("Aes^mCeoTeoTesGesGksTdsGdzAdzAdzTds^mCdsTdsTdsTdsAdzTksTksAesAe (eA*e[5mC]eTeT*eG*kG*dT*dG[ms]dA[ms]dA[ms]dT*d[5mC]*dT*dT*dT*dA[ms]kT*kT*eA*eA) [Compound No. 1757576]", "IC50", "nM", 140),
    ("1778115: modified oligonucleotide complementary to human APOE RNA (eA*e[5mC]eTeTkGkG*dT*dG[ms]dA[ms]dA*dT*d[5mC]*dT*dT*dT*dA[ms]eTeT*eA*eA; antisense) [compound 1778115]", "IC50", "nM", 530),
    ("1785604: modified oligonucleotide complementary to human APOE RNA (k[5mC]*dT[ms]dT[ms]kG*dG[ms]kT*dG[ms]dA[ms]dA*dT*d[5mC]*dT*dT*dT*dA*dT*kT*kA*dA[ms]kA; antisense) [compound 1785604]", "IC50", "nM", 870),
]

Each recorded value in this set is attributed to patent US20250353873A1.
